Measured IC50 (Acetylcholinesterase (Electrophorus electricus))
The reply should contain only the number, in µM.

Some solved cases for reference:
O=C1/C(=C/c2ccc(Cl)cc2)CN2CC13[C@@H](c1ccc(Cl)cc1)C1CCCN1C31C(=O)c3ccccc3C21O (stereo partly drawn): 11.2
O=C1/C(=C/c2ccc(F)cc2)CN2CC13[C@@H](c1ccc(F)cc1)C1CCCN1C31C(=O)c3ccccc3C21O (stereo partly drawn): 11.3

Note: attention shifts to another entry.
## Input Give me measured IC50, please, for this compound: Cc1ccccc1/C=C1\CN2CC3(C1=O)[C@@H](c1ccccc1C)C1CCCN1C31C(=O)c3ccccc3C21O (stereo partly drawn)
## Output 1.2

====

Record set of IC50 for target or system Acetylcholinesterase (Electrophorus electricus, UniProt O42275).
// units = µM; emit number, no label

Recorded IC50, per entry:
O=C1/C(=C/c2cccc([N+](=O)[O-])c2)CN2CC13[C@@H](c1cccc([N+](=O)[O-])c1)C1CCCN1C31C(=O)c3ccccc3C21O (some centres not stated): 6.2
O=C1/C(=C/c2ccc(Br)cc2)CN2CC13[C@@H](c1ccc(Br)cc1)C1CCCN1C31C(=O)c3ccccc3C21O (some centres not stated): 9.26
Cc1ccc(/C=C2\CN3CC4(C2=O)[C@@H](c2ccc(C)cc2)C2CCCN2C42C(=O)c4ccccc4C32O)cc1 (some centres not stated): 0.72
O=C1/C(=C/c2ccccc2)CN2CC13[C@@H](c1ccccc1)C1CCCN1C31C(=O)c3ccccc3C21O (some centres not stated): 6.86
O=C1/C(=C/c2cccc3ccccc23)CN2CC13[C@@H](c1cccc4ccccc14)C1CCCN1C31C(=O)c3ccccc3C21O (some centres not stated): 2.12
O=C1/C(=C/c2ccccc2Cl)CN2CC13[C@@H](c1ccccc1Cl)C1CCCN1C31C(=O)c3ccccc3C21O (some centres not stated): 5.12

Shifting focus to the molecule that follows.
## Input Recall the reported IC50 of O=C1/C(=C/c2ccc(Cl)cc2Cl)CN2CC13[C@@H](c1ccc(Cl)cc1Cl)C1CCCN1C31C(=O)c3ccccc3C21O (some centres not stated) on Acetylcholinesterase (Electrophorus electricus, UniProt O42275) and write it down.
Sequence (O42275 whole entry): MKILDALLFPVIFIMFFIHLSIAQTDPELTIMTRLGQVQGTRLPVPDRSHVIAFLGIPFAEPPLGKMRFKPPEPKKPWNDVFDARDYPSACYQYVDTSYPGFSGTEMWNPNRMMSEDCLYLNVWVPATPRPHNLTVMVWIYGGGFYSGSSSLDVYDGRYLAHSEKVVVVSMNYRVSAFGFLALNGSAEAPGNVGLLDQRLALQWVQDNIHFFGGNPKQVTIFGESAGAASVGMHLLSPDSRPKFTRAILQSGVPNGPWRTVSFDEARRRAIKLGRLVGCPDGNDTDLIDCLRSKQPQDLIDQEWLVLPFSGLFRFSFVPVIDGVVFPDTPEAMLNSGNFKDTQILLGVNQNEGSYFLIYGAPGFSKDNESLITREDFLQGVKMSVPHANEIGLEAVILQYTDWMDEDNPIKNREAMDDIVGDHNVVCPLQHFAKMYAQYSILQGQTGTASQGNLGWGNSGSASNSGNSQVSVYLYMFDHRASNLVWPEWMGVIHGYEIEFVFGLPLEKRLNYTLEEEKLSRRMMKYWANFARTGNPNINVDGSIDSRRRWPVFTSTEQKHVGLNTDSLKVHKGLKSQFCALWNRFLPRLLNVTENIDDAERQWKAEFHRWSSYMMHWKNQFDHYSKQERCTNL
## Output 12.2

Values from ChEMBL document CHEMBL1795302
